This collection of values is drawn from PubChem BioAssay.

Test: reversal of MRP1-mediated doxorubicin resistance, pilot screen, H69AR cells, doxorubicin co-treatment (AID 601)
Settings: H69AR cells, CellTiter-Glo, 72 h; compound alone cytotoxicity; at 10 µM
List of viability values.
Quick note: give the figure in %, leave out the unit.

- Compound: "COc1ccc(-n2c(=O)[nH]cc(C(=O)Nc3ccc(NC(C)=O)cc3)c2=O)cc1"
  viability / %: 96.1

CCOC(=O)c1oc2ccccc2c1CSc1nnnn1-c1ccc(OC)cc1 has a reported viability of 75

Data point: Cc1ccc(S(=O)(=O)N(CC(=O)NCc2ccco2)Cc2ccccc2F)cc1 ; viability = 107

Looking up CC(=O)Nc1ccc(S(=O)(=O)Nc2nc3ccccc3nc2N2CCCC2)cc1 , I see its viability listed as 92.3

# viability (compound: CS(=O)(=O)N(CC(=O)O)c1cccc(Cl)c1 ) is 95.7

Lab note: C=CCn1cc(C(=O)NCCOC)c(=O)c2cc(S(=O)(=O)N(CC)CC)ccc21 gave viability of 83.1
